Reference for the values: ChEMBL document CHEMBL4219261

experimental-protocol: AUC in dog at 10 mg/kg, po
Type: ADME, organism-based, Canis lupus familiaris
condition-parameters: in vivo
endpoint: AUC
State the value with its unit after it.

>>> endpoint_value("CO[C@@]1(C(=O)Nc2ccc3[nH]nc(-c4ccc(F)cc4)c3c2)CCN(CC(=O)N2CC=C(c3ccc(-c4ncccn4)cc3)CC2)C1")
"4.53 µM·h"

Turning now to a further record.
Need AUC, item CS[C@@]1(C(=O)Nc2ccc3[nH]nc(-c4ccc(F)cc4)c3c2)CCN(CC(=O)N2CC=C(c3ccc(-c4ncccn4)cc3)CC2)C1
17.2 µM·h

---

Reported IC50 values follow for various compounds
tgt: Mitogen-activated protein kinase 1 (Homo sapiens, UniProt P28482)
Sequence (P28482 whole entry): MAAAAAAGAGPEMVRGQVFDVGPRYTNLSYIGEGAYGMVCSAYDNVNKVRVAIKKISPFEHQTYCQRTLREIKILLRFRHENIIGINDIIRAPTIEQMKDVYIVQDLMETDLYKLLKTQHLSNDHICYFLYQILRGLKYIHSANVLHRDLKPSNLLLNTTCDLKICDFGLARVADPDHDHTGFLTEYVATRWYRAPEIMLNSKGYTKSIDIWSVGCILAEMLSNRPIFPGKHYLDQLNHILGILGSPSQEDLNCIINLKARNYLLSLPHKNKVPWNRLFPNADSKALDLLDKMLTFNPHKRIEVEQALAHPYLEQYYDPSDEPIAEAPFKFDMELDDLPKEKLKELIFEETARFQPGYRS
experimental-protocol: Inhibition of ERK2 (unknown origin)
Report as a plain number; the unit nM is understood.

Some compounds with recorded IC50:
>>> endpoint_value("COC[C@@]1(C(=O)Nc2ccc3[nH]nc(-c4ccc(F)cc4)c3c2)CCN(CC(=O)N2CC=C(c3ccc(-c4ncccn4)cc3)CC2)C1")
41
>>> endpoint_value("C[C@@]1(C(=O)Nc2ccc3[nH]nc(-c4ccc(F)cc4)c3c2)CCN(CC(=O)N2CCN(c3ccc(-c4ncccn4)cc3)CC2)C1")
24
>>> endpoint_value("O=C(CN1CCC(CF)(C(=O)Nc2ccc3[nH]nc(-c4ccc(F)cc4)c3c2)C1)N1CCN(c2ccc(-c3ncccn3)cc2)CC1 (stereo unspecified)")
5.8

Turning now to a further record.
Need IC50, item CO[C@@]1(C(=O)Nc2ccc3[nH]nc(-c4ccc(F)cc4)c3c2)CCN(CC(=O)N2CC=C(c3ccc(-c4ncccn4)cc3)CC2)C1
4.8
